- target-system: Mu-type opioid receptor (Cavia porcellus) (UniProt P97266)
- Sequence (P97266 whole entry): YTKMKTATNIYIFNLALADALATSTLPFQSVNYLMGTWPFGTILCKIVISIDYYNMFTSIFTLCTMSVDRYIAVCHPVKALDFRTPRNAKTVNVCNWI
- experiment-description: Antagonist activity against electrically stimulated guinea pig ileum using morphine (M) as mu opioid receptor agonist
- Format: functional, tissue-based
hey, just use MET if measured IC50 ratio is less than 1, otherwise NOT MET

[
  {
    "molecule": "COc1cccc2c1CC1(C2)C[C@@]2(O)C3Cc4ccc(O)c5c4C2(CCN3CC2CC2)C(O5)C1=O (some centres not stated)",
    "label-class": "NOT MET"
  },
  {
    "molecule": "O=C1C2Oc3c(O)ccc4c3C23CCN(CC2CC2)C(C4)[C@]3(O)CC12Cc1cc3ccccc3cc1C2 (some centres not stated)",
    "label-class": "NOT MET"
  },
  {
    "molecule": "CN1CCC23c4c5ccc(O)c4OC2C(=O)C2(Cc4cc6ccccc6cc4C2)C[C@@]3(O)C1C5 (some centres not stated)",
    "label-class": "MET"
  }
]

API: query returns whether the molecule falls strictly under 1 in IC50 ratio. Query: CN1CC[C@]23c4c5ccc(O)c4O[C@H]2C(=O)C2(Cc4ccccc4C2)C[C@@]3(O)[C@H]1C5 [SPIROINDANYLOXYMORPHONE]
NOT MET

Try this molecule next: COc1ccc2c(c1)CC1(C2)C[C@@]2(O)C3Cc4ccc(O)c5c4C2(CCN3CC2CC2)C(O5)C1=O (some centres not stated)
NOT MET

Try this molecule next: O=C1C2Oc3c(O)ccc4c3C23CCN(CC2CC2)C(C4)[C@]3(O)CC12Cc1cccc3cccc(c13)C2 (some centres not stated)
MET

---

- target-system: Delta-type opioid receptor (Homo sapiens)
- Sequence (P41143 whole entry): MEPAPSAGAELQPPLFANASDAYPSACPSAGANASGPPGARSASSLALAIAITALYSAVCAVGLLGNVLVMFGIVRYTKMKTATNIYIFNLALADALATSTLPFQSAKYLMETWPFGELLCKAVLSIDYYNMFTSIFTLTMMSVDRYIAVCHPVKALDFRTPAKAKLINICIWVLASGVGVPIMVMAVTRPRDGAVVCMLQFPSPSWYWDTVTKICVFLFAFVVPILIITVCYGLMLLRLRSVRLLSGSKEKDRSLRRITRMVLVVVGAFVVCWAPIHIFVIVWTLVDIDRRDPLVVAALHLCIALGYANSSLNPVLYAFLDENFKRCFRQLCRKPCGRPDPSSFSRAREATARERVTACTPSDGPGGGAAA
- experiment-description: […]
reported-endpoint: Ki (nM)
Report the value in nM with no unit label.

[
  {
    "sample-smiles": "O=C1[C@@H]2Oc3c(O)ccc4c3[C@@]23CCN(CC2CC2)[C@H](C4)[C@]3(O)CC12Cc1ccccc1C2",
    "target-system": "Delta-type opioid receptor (Homo sapiens)",
    "Ki / nM": 0.25
  }
]

Continue with the next compound.
What does the data say about its Ki? Entry: CN1CC[C@]23c4c5ccc(O)c4O[C@H]2C(=O)C2(Cc4ccccc4C2)C[C@@]3(O)[C@H]1C5
2.75

---

- target-system: Opioid receptors; mu & delta (Homo sapiens) (UniProt P41143+P35372)
- Sequence (P35372 whole entry, looked up): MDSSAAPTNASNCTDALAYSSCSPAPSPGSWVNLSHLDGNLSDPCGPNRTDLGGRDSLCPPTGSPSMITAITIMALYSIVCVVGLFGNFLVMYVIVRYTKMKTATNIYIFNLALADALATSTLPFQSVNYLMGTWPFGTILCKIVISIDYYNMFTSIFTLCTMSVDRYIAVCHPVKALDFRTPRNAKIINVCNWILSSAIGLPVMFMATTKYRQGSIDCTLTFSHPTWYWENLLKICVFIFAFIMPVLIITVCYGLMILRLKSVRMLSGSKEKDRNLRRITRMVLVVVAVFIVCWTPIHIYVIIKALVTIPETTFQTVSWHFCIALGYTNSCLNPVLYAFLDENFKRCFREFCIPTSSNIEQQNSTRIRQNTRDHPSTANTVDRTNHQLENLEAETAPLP
- Sequence (P41143 whole entry, looked up): as the sequence (P41143 whole entry) above
- experiment-description: Antagonist selectivity ratio measured as delta IC50 to that of mu receptor IC50 values.
- Format: functional
reported-endpoint: IC50 ratio
Keep the answer to the number alone.

Field: example entries. Status: answers known.
[
  {
    "molecule": "COc1cccc2c1CC1(C2)C[C@@]2(O)C3Cc4ccc(O)c5c4C2(CCN3CC2CC2)C(O5)C1=O (stereo partly specified)",
    "IC50 ratio": 13.7
  },
  {
    "molecule": "O=C1C2Oc3c(O)ccc4c3C23CCN(CC2CC2)C(C4)[C@]3(O)CC12Cc1cc3ccccc3cc1C2 (stereo partly specified)",
    "IC50 ratio": 14.1
  },
  {
    "molecule": "O=C1C2Oc3c(O)ccc4c3C23CCN(CC2CC2)C(C4)[C@]3(O)CC12Cc1ccc3ccccc3c1C2 (stereo partly specified)",
    "IC50 ratio": 25
  },
  {
    "molecule": "O=C1C2Oc3c(O)ccc4c3C23CCN(CC2CC2)C(C4)[C@]3(O)CC12Cc1cccc3cccc(c13)C2 (stereo partly specified)",
    "IC50 ratio": 12.6
  },
  {
    "molecule": "CN1CCC23c4c5ccc(O)c4OC2C(=O)C2(Cc4cc6ccccc6cc4C2)C[C@@]3(O)C1C5 (stereo partly specified)",
    "IC50 ratio": 1
  }
]

Continue with the next molecule.
Notebook entry, Opioid receptors; mu & delta (Homo sapiens) (UniProt P41143+P35372) assay: IC50 ratio of COc1ccc2c(c1)CC1(C2)C[C@@]2(O)C3Cc4ccc(O)c5c4C2(CCN3CC2CC2)C(O5)C1=O (stereo partly specified) = ?
1.7

Provenance of the data: ChEMBL document CHEMBL1130045
